These measurements were taken from the Immune Epitope Database (IEDB).

study_system: HLA-A*02:01
measurement_protocol: IEDB peptide-MHC binding, purified MHC/competitive/radioactivity; filed as Kd, often an IC50 or EC50 that approximates it; bounds were set here for any values at or beyond the usual limits of such assays
stated_conditions: source organism: Dengue virus 2 Jamaica/1409/1983
endpoint_label: Kd (nM)
Respond with the bare value in nM.

**Query** Hi! What's the reported Kd for `AIYGAAFSGV` on HLA-A*02:01?
**Result** 1.05

**Query** Hi! What's the reported Kd for `TLGMCCIITA` on HLA-A*02:01?
**Result** 67.4

====

study_system: HLA-B*48:01
measurement_protocol: IEDB peptide-MHC binding, purified MHC/direct/fluorescence; filed as Kd, often an IC50 or EC50 that approximates it; bounds were set here for any values at or beyond the usual limits of such assays
stated_conditions: source organism: Burkholderia mallei ATCC 23344
endpoint_label: Kd

**Query** Consider the sequence shown here: `EQGKQHAWL` What is its recorded Kd?
**Result** ≥ 20 µM

====

study_system: HLA-B*08:01
measurement_protocol: IEDB peptide-MHC binding, purified MHC/direct/fluorescence; filed as Kd, often an IC50 or EC50 that approximates it; bounds were set here for any values at or beyond the usual limits of such assays
stated_conditions: source organism: Burkholderia mallei
pKd: −log10 of the molar value.
endpoint_label: pKd

**Query** Consider the sequence shown here: `ISDSAQNMM` What is its recorded pKd?
**Result** ≤ 4.70

====

Hi there, I'd appreciate the recorded pKd for every entry that follows.
study_system: HLA-A*24:02
measurement_protocol: IEDB peptide-MHC binding, purified MHC/competitive/radioactivity; filed as Kd, often an IC50 or EC50 that approximates it; bounds were set here for any values at or beyond the usual limits of such assays
stated_conditions: source organism: Dengue virus 1 Brazil/97-11/1997
In textbook form, pKd equals minus log to base ten of the concentration in mol/L.

**Query** Hi! What's the reported pKd for `LWEGSPGKF` on HLA-A*24:02?
**Result** 5.21

**Query** Hi! What's the reported pKd for `ISYGGGWRF` on HLA-A*24:02?
**Result** 6.40

**Query** Hi! What's the reported pKd for `SYLAGAGLAF` on HLA-A*24:02?
**Result** 7.15

====

study_system: HLA-B*27:05
measurement_protocol: IEDB peptide-MHC binding, purified MHC/direct/fluorescence; filed as Kd, often an IC50 or EC50 that approximates it; bounds were set here for any values at or beyond the usual limits of such assays
stated_conditions: source organism: Yersinia pestis
endpoint_label: Kd

**Query** Consider the sequence shown here: `YGIPFPGSL` What is its recorded Kd?
**Result** ≥ 20 µM

====

study_system: HLA-A*26:01
measurement_protocol: IEDB peptide-MHC binding, purified MHC/competitive/fluorescence; filed as Kd, often an IC50 or EC50 that approximates it; bounds were set here for any values at or beyond the usual limits of such assays
stated_conditions: source organism: Canarypox virus
endpoint_label: Kd

**Query** Consider the sequence shown here: `YMMDGNECP` What is its recorded Kd?
**Result** ≥ 20 µM

====

study_system: HLA-C*03:03
measurement_protocol: IEDB peptide-MHC binding, purified MHC/direct/fluorescence; filed as Kd, often an IC50 or EC50 that approximates it; bounds were set here for any values at or beyond the usual limits of such assays
stated_conditions: source organism: Orthomarburgvirus marburgense
endpoint_label: pKd
In textbook form, pKd equals minus log to base ten of the concentration in mol/L.

**Query** Consider the sequence shown here: `WLDSVIQYL` What is its recorded pKd?
**Result** 6.62

====

study_system: HLA-B*51:01
measurement_protocol: IEDB peptide-MHC binding, purified MHC/direct/fluorescence; filed as Kd, often an IC50 or EC50 that approximates it; bounds were set here for any values at or beyond the usual limits of such assays
stated_conditions: source organism: Campylobacter jejuni subsp. jejuni 81116
pKd: −log10 of the molar value.
endpoint_label: pKd

**Query** Hi! What's the reported pKd for `YTNYPFLFF` on HLA-B*51:01?
**Result** ≤ 4.70

====

study_system: HLA-B*08:01
measurement_protocol: IEDB peptide-MHC binding, purified MHC/direct/fluorescence; filed as Kd, often an IC50 or EC50 that approximates it; bounds were set here for any values at or beyond the usual limits of such assays
stated_conditions: source organism: Vibrio parahaemolyticus
endpoint_label: Kd

**Query** Consider the sequence shown here: `RTHTLRDAK` What is its recorded Kd?
**Result** ≥ 20 µM

====

study_system: HLA-A*03:01
measurement_protocol: IEDB peptide-MHC binding, purified MHC/direct/fluorescence; filed as Kd, often an IC50 or EC50 that approximates it; bounds were set here for any values at or beyond the usual limits of such assays
stated_conditions: source organism: Vibrio cholerae
pKd: −log10 of the molar value.
Hi there, I'd appreciate the recorded pKd for every entry that follows.

**Query** Hi! What's the reported pKd for `KEDPGDHIF` on HLA-A*03:01?
**Result** ≤ 4.70

**Query** Hi! What's the reported pKd for `IPISGRITA` on HLA-A*03:01?
**Result** ≤ 4.70

====

study_system: HLA-A*01:01
measurement_protocol: IEDB peptide-MHC binding, purified MHC/direct/fluorescence; filed as Kd, often an IC50 or EC50 that approximates it; bounds were set here for any values at or beyond the usual limits of such assays
stated_conditions: source organism: Influenza A virus (A/chicken/Hubei/wm/1997(H5N1))
endpoint_label: Kd

**Query** Hi! What's the reported Kd for `EKPKFLPDL` on HLA-A*01:01?
**Result** ≥ 20 µM

====

study_system: HLA-A*30:01
measurement_protocol: IEDB peptide-MHC binding, purified MHC/competitive/radioactivity; filed as Kd, often an IC50 or EC50 that approximates it; bounds were set here for any values at or beyond the usual limits of such assays
stated_conditions: source organism: Dengue virus 4 Dominica/814669/1981
endpoint_label: pKd
In textbook form, pKd equals minus log to base ten of the concentration in mol/L.

**Query** Consider the sequence shown here: `GASRRSWPLN` What is its recorded pKd?
**Result** 5.43

====

study_system: HLA-C*08:02
measurement_protocol: IEDB peptide-MHC binding, purified MHC/direct/fluorescence; filed as Kd, often an IC50 or EC50 that approximates it; bounds were set here for any values at or beyond the usual limits of such assays
stated_conditions: source organism: Burkholderia pseudomallei 91
endpoint_label: Kd

**Query** Consider the sequence shown here: `ISDSAQNMM` What is its recorded Kd?
**Result** ≤ 1 nM

====

study_system: HLA-B*18:01
measurement_protocol: IEDB peptide-MHC binding, purified MHC/direct/fluorescence; filed as Kd, often an IC50 or EC50 that approximates it; bounds were set here for any values at or beyond the usual limits of such assays
stated_conditions: source organism: Escherichia coli O157:H7
endpoint_label: Kd (nM)
Respond with the bare value in nM.

**Query** Hi! What's the reported Kd for `GEIFGLLGP` on HLA-B*18:01?
**Result** 101

====

study_system: HLA-B*08:01
measurement_protocol: IEDB peptide-MHC binding, purified MHC/competitive/fluorescence; filed as Kd, often an IC50 or EC50 that approximates it; bounds were set here for any values at or beyond the usual limits of such assays
stated_conditions: source organism: Yersinia mollaretii ATCC 43969
endpoint_label: pKd
In textbook form, pKd equals minus log to base ten of the concentration in mol/L.

**Query** Consider the sequence shown here: `MPMYAIHKV` What is its recorded pKd?
**Result** 5.73

====

study_system: HLA-A*02:06
measurement_protocol: IEDB peptide-MHC binding, purified MHC/competitive/radioactivity; filed as Kd, often an IC50 or EC50 that approximates it; bounds were set here for any values at or beyond the usual limits of such assays
stated_conditions: source organism: Homo sapiens
endpoint_label: pKd
In textbook form, pKd equals minus log to base ten of the concentration in mol/L.

**Query** Consider the sequence shown here: `RLFTKVKPLL` What is its recorded pKd?
**Result** 5.39

====

study_system: HLA-A*02:11
measurement_protocol: IEDB peptide-MHC binding, purified MHC/direct/fluorescence; filed as Kd, often an IC50 or EC50 that approximates it; bounds were set here for any values at or beyond the usual limits of such assays
stated_conditions: source organism: Orthohantavirus hantanense
endpoint_label: pKd
In textbook form, pKd equals minus log to base ten of the concentration in mol/L.

**Query** Consider the sequence shown here: `WLIEPCKLL` What is its recorded pKd?
**Result** 8.30

====

study_system: HLA-B*46:01
measurement_protocol: IEDB peptide-MHC binding, purified MHC/competitive/fluorescence; filed as Kd, often an IC50 or EC50 that approximates it; bounds were set here for any values at or beyond the usual limits of such assays
stated_conditions: source organism: Reston ebolavirus
endpoint_label: Kd

**Query** Consider the sequence shown here: `RRELSKEKL` What is its recorded Kd?
**Result** ≥ 20 µM
